The values you see were collected from patent US20170015742A1.

Target: T1, Human PDGF-BB (human, UniProt P01127 82-190)
T1 construct: Recombinant human PDGF-BB, a dimer of two B chains; also called huPDGF-BB; hPDGF-BB
T1 sequence (P01127 82-190 limits assumed): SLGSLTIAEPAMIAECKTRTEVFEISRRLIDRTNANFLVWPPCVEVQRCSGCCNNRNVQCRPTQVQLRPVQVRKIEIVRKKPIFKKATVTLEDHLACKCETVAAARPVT
Assay: Biacore SPR (Example 1.1)
measurement-type: Kd

[
  {
    "binder": "BDI-5H1-F6 (antibody, V domains shown) VH: QVTLKESGPGILQPSQTLSLTCTFSGFSLSTFGMGVGWIRQPSGKGLEWLANIWWDDDKYYNPSLKNRLTISKDTSNSQAFLEITNVDTADTATYYCARISTGISSYYVMDAWGQGASVTVSS VL: QFTLTQPKSVSGSLRSTITIPCERSSGDIGDTYVSWYQQHLGRPPINVIYGNDQRPSEVSDRFSGSIDSSSNSASLTITNLQMDDEADYFCQSYDSDIDIVFGGGTKLTVL",
    "measurement-type": "Kd",
    "assay-result": "≤ 0.1 pM"
  }
]
